Measured values drawn from patent US6410530B1 for this set.

property measured: melting point

Recorded melting point for CCCCOc1ccc(C(=O)N[C@@H]2CCc3cccc(C4CCN(C)CC4)c3C2)cc1 [Example 100] , please? 162 to 164 °C

Cool, now CN1CCN(c2cccc3c2C[C@H](NC(=O)c2ccccc2O)CC3)CC1 [Example 92] 87 °C (dec.)

Entry to check: CN1CCN(c2cccc3c2C[C@@H](NC(=O)c2ccc(N4CCOCC4)cc2)CC3)CC1 [Example 55] 228 to 230 °C

Then this compound: Cc1cc(C(=O)N[C@@H]2CCc3cccc(N4CCN(C)CC4)c3C2)ccc1N1CCOCC1 [Example 61] 172 to 175 °C

----------
Exercise: state measured melting point for each of the compounds provided.

Fill blank: measured melting point of the compound CN1CCN(c2cccc3c2C[C@H](NC(=O)c2ccc(Cc4ccccc4)cc2)CC3)CC1 [Example 75] is ____. 191 to 192 °C

// query: CN1CCN(c2cccc3c2C[C@H](NC(=O)C2CCCCC2)CC3)CC1 [Example 36] 183 to 184 °C

Also CCCCCN1CCN(c2cccc3c2C[C@H](NC(C)=O)CC3)CC1 [Example 30] ? 119 to 120 °C

Can you check CN1CCN(c2cccc3c2C[C@H](N(C)C(=O)c2ccc(C(F)(F)F)cc2)CC3)CC1 [Example 122] next? 123 to 125 °C

Another: CN1CCN(c2cccc3c2C[C@H](NC(=O)c2cccc(Oc4ccccc4)c2)CC3)CC1 [Example 87] 136 to 137 °C

Now this one: Cc1ccccc1C(=O)N[C@@H]1CCc2cccc(N3CCN(C)CC3)c2C1 [Example 90] 179 to 180 °C

Moving on to the next compound: CCCCCCN1CCN(c2cccc3c2C[C@H](NC(C)=O)CC3)CC1 [Example 33] 117 to 118 °C

Subsequent entry: CN1CCN(c2cccc3c2C[C@H](NC(=O)c2csc(-c4ccncc4)n2)CC3)CC1 [Example 47] 187 to 188 °C

Would you kindly repeat that for CN1CCN(c2cccc3c2C[C@H](NC(=O)c2ccccc2)CC3)CC1 [Example 48] ? 195 to 196 °C

// query: CN1CCC(c2cccc3c2C[C@H](NC(=O)c2ccc(N4CCOCC4)cc2)CC3)CC1 [Example 101] 196 to 198 °C

Query CCCN1CCN(c2cccc3c2C[C@H](NC(=O)c2ccc(N4CCOCC4)cc2)CC3)CC1 [Example 57] next 183 to 185 °C

Now the compound CN1CCN(c2cccc3c2C[C@H](NC(=O)c2ccc(-n4cccc4)cc2)CC3)CC1 [Example 78] 245 to 247 °C

----------
For each record, write down the corresponding melting point.

// lookup melting point for CN1CCN(c2cccc3c2C[C@H](NC(=O)Cc2ccccc2)CC3)CC1 [Example 80] 151 to 152 °C

And the next one, CN1CCN(c2cccc3c2C[C@H](NC(=O)c2ccc(OS(C)(=O)=O)cc2)CC3)CC1 [Example 67] ? 199 to 200 °C

// next record CN1CCN(c2cccc3c2C[C@H](NC(=O)c2ccc(-c4ccccc4)cc2)CC3)CC1 [Example 44] 232 to 233 °C

Next record, please: CN1CCN(c2cccc3c2C[C@H](NC(=O)c2ccccc2OS(C)(=O)=O)CC3)CC1 [Example 93] 144 to 145 °C

Next compound up: CCCN1CCN(c2cccc3c2C[C@H](NC(C)=O)CC3)CC1 [Example 24] 139 to 140 °C

Then this compound: CN1CCN(c2cccc3c2C[C@H](NC(=O)c2ccc(N4CCOCC4)cc2)CC3)CC1 [Example 54] 230 to 231 °C

Please do the same for CN1CCN(c2cccc3c2C[C@H](NC(=O)c2ccc(C#N)cc2)CC3)CC1 [Example 50] as well. 184 to 186 °C

Also CN1CCN(c2cccc3c2C[C@H](NC(=O)c2ccc(C4CCCCC4)cc2)CC3)CC1 [Example 63] ? 224 to 226 °C

Try CN1CCN(c2cccc3c2C[C@@H](NC(=O)c2ccc(C(F)(F)F)cc2)CC3)CC1 [Example 66] next. 202 to 204 °C

Try this compound too: CN1CCN(c2cccc3c2C[C@H](NC(=O)c2ccc(C(=O)N4CCOCC4)cc2)CC3)CC1 [Example 129] 124 to 127 °C

// same read-out, input: O=C(N[C@@H]1CCc2cccc(N3CCNCC3)c2C1)c1ccc(N2CCOCC2)cc1 [Example 53] 202 to 203 °C

Same again, this time with CN1CCN(c2cccc3c2CC[C@@H](NC(=O)c2ccc(N4CCOCC4)cc2)C3)CC1 [Example 118] 127 to 128 °C

Please give the result for CN1CCN(c2cccc3c2C[C@H](NC(=O)c2ccc(Cl)cc2)CC3)CC1 [Example 74] too. 204 to 205 °C

How about this compound: CN1CCN(c2cccc3c2C[C@H](NC(=O)c2ccc(N4CCSCC4)cc2)CC3)CC1 [Example 125] 190 to 191 °C

Follow-up item: `CC(=O)N[C@@H]1CCc2cccc(N3CCN(C)CC3)c2C1` 152 to 154 °C

Cool, now CN1CCN(c2cccc3c2C[C@H](NC(=O)c2cccc(O)c2)CC3)CC1 [Example 88] 117 °C (dec.)

Now this one: CN1CCN(c2cccc3c2C[C@H](NC(=O)CCCc2ccccc2)CC3)CC1 [Example 82] 137 to 139 °C

What about `CCN1CCN(c2cccc3c2C[C@H](NC(C)=O)CC3)CC1` ? 142 to 143 °C

Queued: CN1CCN(c2cccc3c2C[C@H](NC(=O)c2ccc(C(F)(F)F)cc2)CC3)CC1 [Example 65] 203 to 204 °C

Now the same for CCCCN1CCN(c2cccc3c2C[C@H](NC(C)=O)CC3)CC1 [Example 27] 118 to 120 °C

And what about the compound CCCCOc1ccc(C(=O)N[C@@H]2CCc3cccc(N4CCN(C)CC4)c3C2)cc1 [Example 70] ? 190 to 191 °C

Please answer likewise for CN1CCN(c2cccc3c2C[C@H](NC(=O)c2ccc(F)cc2)CC3)CC1 [Example 72] 189 to 190 °C

Can you handle CN1CCN(c2cccc3c2CC[C@H](NC(=O)c2ccc(N4CCOCC4)cc2)C3)CC1 [Example 119] next? 129 to 131 °C

Further, for CCc1ccc(-c2ccc(C(=O)N[C@@H]3CCc4cccc(N5CCN(C)CC5)c4C3)cc2)cc1 [Example 84] ? 234 to 235 °C

Entry to check: COc1ccc(C(=O)N[C@@H]2CCc3cccc(N4CCN(C)CC4)c3C2)cc1 [Example 49] 186 to 187 °C

Cool, now CN1CCC(c2cccc3c2C[C@H](NC(=O)c2ccc(C(F)(F)F)cc2)CC3)CC1 [Example 99] 163 to 166 °C

Same lookup for `CN1CCN(c2cccc3c2C[C@H](NC(=O)C(F)(F)F)CC3)CC1` , please. 158 to 159 °C

Next compound: CN1CCN(c2cccc3c2C[C@H](NC(=O)c2csc(-c4ccccc4)n2)CC3)CC1 [Example 46] 175 to 176 °C

And CN1CCN(c2cccc3c2C[C@H](NC(=O)c2ccc(-c4ccc(O)cc4)cc2)CC3)CC1 [Example 85] ? 261 to 262 °C

Similarly, CCCCOc1ccc(C(=O)N[C@H]2CCc3cccc(N4CCN(C)CC4)c3C2)cc1 [Example 71] ? 190 to 192 °C

Consider next the compound `CCCC(=O)N[C@@H]1CCc2cccc(N3CCN(C)CC3)c2C1` in the same way. 131 to 132 °C

Can you check CCc1ccc(C(=O)N[C@@H]2CCc3cccc(N4CCN(C)CC4)c3C2)cc1 [Example 69] next? 177 to 178 °C

Another compound to look at: CN1CCN(c2cccc3c2C[C@H](NC(=O)c2ccc(C(=O)c4ccccc4)cc2)CC3)CC1 [Example 76] 194 to 195 °C

Do the same for CN1CCN(c2cccc3c2C[C@H](NC(=O)c2ccc(Br)cc2)CC3)CC1 [Example 73] please 200 to 201 °C

Note, next up: `CN1CCN(c2cccc3c2C[C@H](NS(C)(=O)=O)CC3)CC1` 135 to 137 °C
